Biological target: CB1 receptors (Mus musculus, UniProt P47746)
Construct: using mouse brain membranes containing CB1 receptors; from tissue; host or cells: mouse brain membranes
Sequence (P47746 whole entry): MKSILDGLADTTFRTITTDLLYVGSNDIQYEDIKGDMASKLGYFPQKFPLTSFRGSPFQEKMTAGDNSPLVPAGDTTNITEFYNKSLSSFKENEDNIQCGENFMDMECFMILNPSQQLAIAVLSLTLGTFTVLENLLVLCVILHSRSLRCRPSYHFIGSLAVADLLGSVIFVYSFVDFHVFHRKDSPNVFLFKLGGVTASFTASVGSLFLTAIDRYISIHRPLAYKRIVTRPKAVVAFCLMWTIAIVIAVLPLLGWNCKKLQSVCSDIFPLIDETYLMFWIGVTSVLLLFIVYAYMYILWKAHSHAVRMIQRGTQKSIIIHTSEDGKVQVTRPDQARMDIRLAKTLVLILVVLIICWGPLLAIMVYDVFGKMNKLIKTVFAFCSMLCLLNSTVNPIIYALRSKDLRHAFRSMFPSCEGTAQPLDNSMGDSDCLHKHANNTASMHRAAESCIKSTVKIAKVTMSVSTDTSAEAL
Assay: [35S]GTP-γ-S binding, mouse brain membranes
Format: biochemical
Settings: mouse brain membranes; read-out: IC50, stimulation of GTP-γ-S-binding
Method: These assays were performed as previously described (Thomas et al., 2005), using mouse brain membranes containing CB1 receptors or CHO cells stably over-expressing the human recombinant CB2 receptor (10 μg/ml protein), 0.7 nM [^35S]GTP-γ-S and 320 μM GDP, and a final assay volume of 250 μl. Results were compared to the potent CB1 and CB2 receptor agonist CP55940, purchased from Cayman Chemicals, Ann Arbour, Mich., USA.
QUANTITY_KIND: IC50 (nM)

[[record]]
compound = "CCCCCc1cc(O)cc(OCCCCCCCCCCC(=O)NC2CC2)c1 [Compound 25]"
display_unit = "nM"
reported_measurement = 150


====

target: CB1 cannabinoid receptors (Mus musculus, UniProt P47746); construct: N18TG2 mouse neuroblastoma cells, which constitutively and selectively express the CB 1 cannabinoid receptors; endogenous in cells; host or cells: N18TG2 mouse neuroblastoma cells; assay: Forskolin-induced cyclic AMP in N18TG2 neuroblastoma cells; assay type: cell-based; settings: N18TG2 cells, forskolin 1 μM; read-out: half-maximum effect concentration, stimulation of forskolin-induced cAMP formation
pEC50: −log10 of the molar value.
QUANTITY_KIND: pEC50

[[record]]
compound = "CCCCCCc1ccc(OCCCCCC(=O)NC2CC2)cc1O [Compound 40]"
assay_target = "CB1 cannabinoid receptors (Mus musculus, UniProt P47746)"
quantity_kind = "pEC50"
reported_measurement = 6.82


====

target: human recombinant CB2 receptor (Homo sapiens, UniProt P34972); test: CB2 binding, [3H]CP55,940 displacement, membranes from transfected COS cells; parameters: purchased Perkin-Elmer; host or cells: COS cells; conditions: recombinant human CB2, COS cell membranes
Sequence (P34972 whole entry): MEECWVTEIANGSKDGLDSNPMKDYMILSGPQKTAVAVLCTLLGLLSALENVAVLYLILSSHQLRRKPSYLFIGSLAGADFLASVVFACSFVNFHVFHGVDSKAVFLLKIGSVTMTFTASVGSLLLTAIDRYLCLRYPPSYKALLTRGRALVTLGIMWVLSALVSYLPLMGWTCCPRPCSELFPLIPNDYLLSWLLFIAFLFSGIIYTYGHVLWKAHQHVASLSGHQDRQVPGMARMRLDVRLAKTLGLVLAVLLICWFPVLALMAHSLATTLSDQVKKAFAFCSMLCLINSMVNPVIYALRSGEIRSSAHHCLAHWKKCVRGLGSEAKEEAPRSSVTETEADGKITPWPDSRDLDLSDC
Mark YES for Ki under 1000 nM, NO if at or over.

[[record]]
compound = "CCCCCCc1ccc(O)cc1OCCCCCC(=O)NC1CC1"
group = "NO"

[[record]]
compound = "CCCCCc1cc(O)cc(OCCCCCCCCCCC(=O)NCCO)c1"
group = "YES"

[[record]]
compound = "CCCCCCc1ccc(OCCCCCCCCCCC(=O)NCCO)cc1O"
group = "NO"

[[record]]
compound = "CCCCCCc1ccc(O)cc1OCCCCCCCCCCCCCCCC(=O)NC1CC1"
group = "NO"

[[record]]
compound = "CCCCCCc1ccc(OCCCCCC(=O)NCCO)cc1O"
group = "NO"

[[record]]
compound = "CCCCCCc1ccc(OCCCCCC(=O)NC2CC2)cc1O"
group = "YES"

[[record]]
compound = "CCCCCCc1ccc(O)cc1OCCCCCCCCCCC(=O)NCCO"
group = "YES"

[[record]]
compound = "CCCCCCc1ccc(OCCCCCCCCCCC(=O)NC2CC2)cc1O"
group = "YES"

[[record]]
compound = "CCCCCCc1ccc(O)cc1OCCCCCCCCCCC(=O)Nc1ccc(O)cc1"
group = "NO"

[[record]]
compound = "CCCCCc1cc(O)cc(OCCCCCC(=O)NC2CC2)c1"
group = "YES"

[[record]]
compound = "O=C(CCCCCCCCCCOc1cccc(O)c1)NC1CC1"
group = "NO"

[[record]]
compound = "CCCCCc1cc(O)cc(OCCCCCCCCCCC(=O)Nc2ccc(O)cc2)c1"
group = "NO"

